Data provenance is patent US11377442B2.

test system: NR2F6 LBD (Homo sapiens)
Construct: expressed in transfected cells
assay comment: NR2F6 LBD transient transfection
Type: cell-based
stated conditions: 10 uM; LBD

{"molecule": "CC1CCN([C@H]2CS(=O)(=O)C[C@@H]2S(=O)(=O)c2cccs2)CC1", "Firefly LBD, cmpd/DMSO (mean)": 4.0}
{"molecule": "CCC(C)N[C@H]1CS(=O)(=O)C[C@@H]1S(=O)(=O)c1ccc(C)cc1 (stereo partly shown)", "Firefly LBD, cmpd/DMSO (mean)": 2.2}
{"molecule": "CC1CCN([C@H]2CS(=O)(=O)C[C@@H]2S(=O)(=O)c2ccc(Cl)cc2)CC1", "Firefly LBD, cmpd/DMSO (mean)": 4.6}
{"molecule": "CC(C)N[C@H]1CS(=O)(=O)C[C@@H]1S(=O)(=O)c1ccc(Cl)cc1", "Firefly LBD, cmpd/DMSO (mean)": 3.8}
{"molecule": "O=S1(=O)C[C@H](N2CCCC2)[C@@H](S(=O)(=O)c2cccs2)C1", "Firefly LBD, cmpd/DMSO (mean)": 3.3}
{"molecule": "CCC(C)N[C@H]1CS(=O)(=O)C[C@@H]1S(=O)(=O)c1ccc(Cl)cc1 (stereo partly shown)", "Firefly LBD, cmpd/DMSO (mean)": 3.6}
{"molecule": "O=S1(=O)C[C@H](N2CCCC2)[C@@H](S(=O)(=O)c2ccc(Cl)cc2)C1", "Firefly LBD, cmpd/DMSO (mean)": 3.1}

---

test system: NR2F6 (Homo sapiens, UniProt P10588)
Construct: expressed in transfected cells; also transient transfection
Sequence (P10588 1-404): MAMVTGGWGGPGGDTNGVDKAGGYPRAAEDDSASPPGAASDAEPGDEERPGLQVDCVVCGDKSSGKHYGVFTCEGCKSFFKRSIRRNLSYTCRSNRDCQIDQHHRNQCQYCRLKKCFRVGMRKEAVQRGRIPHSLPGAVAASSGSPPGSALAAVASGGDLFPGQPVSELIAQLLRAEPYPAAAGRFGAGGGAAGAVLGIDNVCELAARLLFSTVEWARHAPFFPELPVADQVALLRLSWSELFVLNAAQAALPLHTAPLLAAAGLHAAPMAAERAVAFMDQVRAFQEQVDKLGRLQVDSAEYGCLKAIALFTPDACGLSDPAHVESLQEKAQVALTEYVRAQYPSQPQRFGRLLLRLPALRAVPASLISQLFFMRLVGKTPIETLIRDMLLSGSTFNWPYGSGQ
assay comment: NR2F6 agonist screening, Firefly signal cmpd/DMSO
Format: cell-based
stated conditions: C11 analogs follow set (Tables 2-10), repeat 2
// map Firefly, cmpd/DMSO repeat 2 onto a label; ranges lower level (below 3), middle level (3 to below 10), upper level (10 or more)

{"compound": "COc1cccc(NC(=O)c2ccc3oc(=O)c(S(=O)(=O)c4ccc(F)cc4)cc3c2)c1 [Compound C127]", "assigned category": "upper level"}
{"compound": "COc1ccc2cc(S(=O)(=O)c3ccc(Cl)cc3)c(=O)oc2c1 [Compound C271]", "assigned category": "lower level"}
{"compound": "COC(=O)c1ccc2oc(=O)c(S(=O)(=O)c3ccc(OC)cc3)cc2c1 [Compound C12]", "assigned category": "upper level"}
{"compound": "COc1cc(NC(=O)c2ccc3oc(=O)c(S(=O)(=O)c4ccc(F)cc4)cc3c2)cc(OC)c1 [Compound C132]", "assigned category": "lower level"}
{"compound": "Cc1ccc(NC(=O)c2ccc3oc(=O)c(S(=O)(=O)c4ccc(F)cc4)cc3c2)cc1 [Compound C163]", "assigned category": "middle level"}
{"compound": "CCN(CC)c1ccc2cc(S(=O)(=O)c3ccc(C)cc3)c(=O)oc2c1 [Compound C277]", "assigned category": "lower level"}
{"compound": "Cc1ccc(S(=O)(=O)c2cc3cc(C(=O)Nc4cc(C)cc(C)c4)ccc3oc2=O)cc1 [Compound C175]", "assigned category": "upper level"}
{"compound": "Cc1ccc(S(=O)(=O)c2cc3cc(Cl)ccc3oc2=O)cc1 [Compound C202]", "assigned category": "upper level"}
{"compound": "O=c1oc2ccc(Cl)cc2cc1S(=O)(=O)c1ccc(Br)cc1 [Compound C204]", "assigned category": "middle level"}
{"compound": "Cc1ccc(S(=O)(=O)c2cc3cc(C(=O)Nc4cccc(C)c4)ccc3oc2=O)cc1 [Compound C171]", "assigned category": "middle level"}
{"compound": "O=c1oc2ccc([N+](=O)[O-])cc2cc1S(=O)(=O)c1ccccc1 [Compound C210]", "assigned category": "upper level"}
{"compound": "COc1ccc2cc(S(=O)(=O)c3ccc(C)c(C)c3)c(=O)oc2c1 [Compound C270]", "assigned category": "middle level"}
{"compound": "Cc1cc(C)cc(NC(=O)c2ccc3oc(=O)c(S(=O)(=O)c4ccc(F)cc4)cc3c2)c1 [Compound C176]", "assigned category": "middle level"}
{"compound": "Cc1ccc(CNC(=O)c2ccc3oc(=O)c(S(=O)(=O)c4ccc(Cl)cc4)cc3c2)cc1 [Compound C116]", "assigned category": "middle level"}
{"compound": "COc1cccc(NC(=O)c2ccc3oc(=O)c(S(=O)(=O)c4ccc(C)cc4)cc3c2)c1 [Compound C126]", "assigned category": "upper level"}
{"compound": "O=c1oc2ccc(F)cc2cc1S(=O)(=O)c1ccccc1 [Compound C212]", "assigned category": "lower level"}
{"compound": "COc1cccc(S(=O)(=O)c2cc3cc(Cl)ccc3oc2=O)c1 [Compound C184]", "assigned category": "lower level"}
{"compound": "Cc1cccc(NC(=O)c2ccc3oc(=O)c(S(=O)(=O)c4ccc(Cl)cc4)cc3c2)c1C [Compound C136]", "assigned category": "upper level"}
{"compound": "COc1ccc2cc(S(=O)(=O)c3ccc(Br)cc3)c(=O)oc2c1 [Compound C267]", "assigned category": "lower level"}
{"compound": "O=c1oc2ccc(Cl)cc2cc1S(=O)(=O)c1cccc(F)c1 [Compound C182]", "assigned category": "upper level"}
{"compound": "COc1cc(NC(=O)c2ccc3oc(=O)c(S(=O)(=O)c4ccc(C)cc4)cc3c2)cc(OC)c1 [Compound C131]", "assigned category": "upper level"}
{"compound": "COc1ccc2cc(S(=O)(=O)c3ccc(Cl)c(Cl)c3)c(=O)oc2c1 [Compound C272]", "assigned category": "middle level"}
{"compound": "COc1ccc(S(=O)(=O)c2cc3cc(OC)ccc3oc2=O)cc1 [Compound C207]", "assigned category": "lower level"}
{"compound": "O=C(Nc1ccccc1C(F)(F)F)c1ccc2oc(=O)c(S(=O)(=O)c3ccc(F)cc3)cc2c1 [Compound C120]", "assigned category": "middle level"}
{"compound": "Cc1cc(C)cc(S(=O)(=O)c2cc3cc(Cl)ccc3oc2=O)c1 [Compound C186]", "assigned category": "middle level"}

---

test system: NR2F6 (Homo sapiens)
Construct: expressed in transfected cells; also transient transfection
Sequence (P10588 1-404): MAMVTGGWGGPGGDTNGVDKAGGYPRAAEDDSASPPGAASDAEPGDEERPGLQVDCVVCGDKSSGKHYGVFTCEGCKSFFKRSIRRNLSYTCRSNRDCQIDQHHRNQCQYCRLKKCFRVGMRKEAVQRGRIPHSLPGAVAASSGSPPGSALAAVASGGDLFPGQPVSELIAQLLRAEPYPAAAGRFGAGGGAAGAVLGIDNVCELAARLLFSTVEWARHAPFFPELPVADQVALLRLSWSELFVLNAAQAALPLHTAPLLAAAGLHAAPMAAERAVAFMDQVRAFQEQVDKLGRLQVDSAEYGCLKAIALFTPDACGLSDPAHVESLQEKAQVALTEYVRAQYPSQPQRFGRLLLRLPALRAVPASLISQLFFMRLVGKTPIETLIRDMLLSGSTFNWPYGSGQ
assay comment: NR2F6 agonist screening, Firefly signal cmpd/DMSO
Format: cell-based
stated conditions: Table 14; 10 uM
Rule for this label: true means Firefly F4, cmpd/DMSO (mean) is less than 0.9; false means Firefly F4, cmpd/DMSO (mean) is at least 0.9.

{"compound": "CCc1cccc(Nc2cnn(-c3nc4ccccc4s3)c(=O)c2Cl)c1", "assigned category": "true"}
{"compound": "CCc1cc(C(=O)Nc2ccn(Cc3ccc(C)cc3)n2)no1", "assigned category": "true"}
{"compound": "Cc1ccc(NC(=O)c2noc3c2CC(C)CC3)cc1C (stereo not drawn)", "assigned category": "false"}
{"compound": "Cc1ccc(NC(=O)c2noc3c2CCC3)cc1C", "assigned category": "false"}

---

test system: ERα (Homo sapiens, UniProt P03372)
Construct: expressed in transfected cells
Sequence (P03372 whole entry, species assumed): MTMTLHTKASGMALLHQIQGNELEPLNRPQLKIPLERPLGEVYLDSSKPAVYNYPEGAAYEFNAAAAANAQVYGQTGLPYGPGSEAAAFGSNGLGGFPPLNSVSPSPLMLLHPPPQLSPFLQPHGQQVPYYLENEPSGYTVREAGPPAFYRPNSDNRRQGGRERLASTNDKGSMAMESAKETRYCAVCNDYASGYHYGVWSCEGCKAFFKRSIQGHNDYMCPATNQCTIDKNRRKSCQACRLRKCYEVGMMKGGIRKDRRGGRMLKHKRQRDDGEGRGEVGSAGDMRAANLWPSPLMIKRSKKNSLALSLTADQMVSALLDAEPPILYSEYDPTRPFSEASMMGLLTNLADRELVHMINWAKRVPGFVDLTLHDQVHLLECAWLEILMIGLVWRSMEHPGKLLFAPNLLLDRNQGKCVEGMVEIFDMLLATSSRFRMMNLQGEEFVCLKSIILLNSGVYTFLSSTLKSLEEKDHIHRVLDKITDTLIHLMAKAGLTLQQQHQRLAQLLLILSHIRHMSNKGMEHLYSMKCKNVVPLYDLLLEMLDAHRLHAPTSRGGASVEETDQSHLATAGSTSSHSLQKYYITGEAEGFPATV
assay comment: Counterscreening, Firefly signal with ERα transient transfection (Firefly_ERa)
Type: cell-based
stated conditions: 40 uM
Note to self: Firefly ERalpha transient, cmpd/DMSO (mean) under 0.7 means criterion met, ties and anything higher get criterion not met.

{"molecule": "O=c1cccc2n1CCN(c1nc(NCC3CCCO3)nc(N3CCCC3)n1)C2 (centres unmarked)", "assigned category": "criterion not met"}
{"molecule": "O=c1c(Cl)c(Cl)cnn1-c1ccccc1", "assigned category": "criterion met"}
{"molecule": "CC1CCN(c2nc(N3CCC(C)CC3)nc(N3CCn4c(cccc4=O)C3)n2)CC1", "assigned category": "criterion met"}
{"molecule": "CCCNc1nc(N2CCOCC2)nc(N2CC3CC(C2)c2cccc(=O)n2C3)n1 (centres unmarked)", "assigned category": "criterion not met"}
{"molecule": "N#Cc1c(C(F)(F)F)nc2ccc(Oc3ccccc3)cc2c1N1CCNCC1", "assigned category": "criterion met"}
{"molecule": "Cc1cc(C)c2ncc(C(=O)N(C)C)c(NCCCN(C)C)c2c1", "assigned category": "criterion not met"}
{"molecule": "O=c1cccc2n1CC1CC2CN(c2nc(NCCC3=CCCCC3)nc(N3CCOCC3)n2)C1 (centres unmarked)", "assigned category": "criterion not met"}
{"molecule": "CCCCCCNc1nc(OC)nc(N2CCn3c(cccc3=O)C2)n1", "assigned category": "criterion not met"}
{"molecule": "O=c1cccc2n1CC1CC2CN(c2nc(N3CCOCC3)nc(N3CCOCC3)n2)C1 (centres unmarked)", "assigned category": "criterion not met"}
{"molecule": "O=c1cccc2n1CC1CC2CN(c2nc(N3CCCC3)nc(N3CCCC3)n2)C1 (centres unmarked)", "assigned category": "criterion not met"}
